Source of measurements: PubChem BioAssay (NCI)

test system: SK-MEL-28 melanoma; assay: NCI tumour cell line growth inhibition, 48 h; in the data active means GI50 below about 0.43 µM; inactive means the rest
Your answer must be one of the following: true = active, false = inactive

1) COc1cc2c3c(n(CCCN=[N+]=[N-])c(=O)c2cc1OC)-c1ccc([N+](=O)[O-])cc1C3=O false
2) O=C(Nc1ccc(I)cc1F)c1cc(Br)ccc1O true
3) CCCCCN(CCCCC)CCC[C@@H](C)[C@H]1CC[C@H]2[C@@H]3[C@H](OCCCN)C[C@@H]4C[C@H](OCCCN)CC[C@]4(C)[C@H]3C[C@H](OCCCN)[C@]12C false
4) O=C(Nc1ccc(Cl)c(C(F)(F)F)c1)Nc1ccc(-c2cccnc2)cc1N1CCC(CO)CC1 false
5) COc1cc2c(/C=C3\C(=O)N(C)c4ccccc43)c[nH]c2cc1C false
6) O=c1[nH]c(-c2ccc(Cl)c(Cl)c2)cn1-c1ccc(Cl)cc1 false

**Query** // param item: COC(=O)CCc1n(Cc2ccc3ccccc3c2)c2ccccc2[n+]1Cc1ccc2ccccc2c1 ; yields the recorded call
**Result** false

**Query** // param item: CCOC(=O)c1ccc(N2NC(=O)/C(=C/c3ccc([N+](=O)[O-])o3)C2=O)cc1 ; yields the recorded call
**Result** false

**Query** // param item: O=C1OC2(c3ccc(O)cc3Oc3cc(O)ccc32)c2cccc3cccc1c23 ; yields the recorded call
**Result** false

**Query** // param item: COc1cc2c(c(OC)c1OC)-c1ccc(SC)c(=O)cc1[C@@H](NC(=O)c1cccc([N+](=O)[O-])c1)CC2 ; yields the recorded call
**Result** false

**Query** // param item: COc1ccc(Nc2ncc(I)c(NCCCNC(=O)C3CCC3)n2)cc1 ; yields the recorded call
**Result** false

**Query** // param item: OCc1ccc(-c2nc(-c3ccc4c(c3)OCO4)c(-c3ccccn3)[nH]2)cc1 ; yields the recorded call
**Result** false

**Query** // param item: CC(C)CCN(CCC(C)C)CC(=O)Nc1ccc(S(=O)(=O)c2ccc(NC(=O)CN(CCC(C)C)CCC(C)C)cc2)cc1 ; yields the recorded call
**Result** false

---

Measured TGI, listed per entry for reference.
tested on: DLD-1 colon; experiment: NCI tumour cell line growth inhibition, 48 h

Some compounds with recorded TGI:
compound	TGI
CN(C)CC1(C)CC/C(=C\c2ccc(Cl)cc2)C1=O (centres undefined)	85.7 µM
O=CCCn1[nH]c(=O)ccc1=O	> 100 µM
COc1cccc(/C=C2\CCC(CN(C)C)C2=O)c1 (centres undefined)	7.81 µM
O=C(CCN1CCCCC1)Nc1ccc2c(c1)C(=O)c1ccc(NC(=O)CCN3CCCCC3)cc1C2=O	15 µM
C=CC12CCCCC1CC(C(=O)OC)=C(O)C2 (centres undefined)	> 100 µM
CC(C)C1=Cc2ccc3c(c2C(=O)C1=O)CCCC3	3.31 µM
O/N=C1/CCCC/C1=C\c1ccc(Cl)c(Cl)c1	> 100 µM
CC(=O)NC(CCCCNCc1ccccc1)C(=O)NCc1ccccc1 (centres undefined)	> 100 µM
COc1cc2c(c(OC)c1OC)-c1ccc(SC)c(=O)cc1[C@@H](NC(=O)c1cccc([N+](=O)[O-])c1)CC2	> 100 µM
CCOC(=O)C1CC(=O)C=C2CCCCC21 (centres undefined)	> 100 µM

**Query** Fill blank: measured TGI of the compound COc1ccc(OC2(c3cc(OC)ccc3OC)OC(=O)c3ccccc32)cc1 (centres undefined) is ____.
**Result** > 100 µM

**Query** Fill blank: measured TGI of the compound N#CC1(CCCI)CCCC1 is ____.
**Result** > 100 µM

**Query** Fill blank: measured TGI of the compound Cc1cc(N(CCC#N)CCC#N)ccc1/C=C1N=C(/C=C\c2ccccc2)N(NC(=O)CC(=O)Nc2ccccc2Cl)C\1=O is ____.
**Result** > 100 µM

**Query** Fill blank: measured TGI of the compound N#CC(NNC(=O)Cc1ccccc1)c1ccc([N+](=O)[O-])cc1 (centres undefined) is ____.
**Result** > 100 µM

**Query** Fill blank: measured TGI of the compound COC(=O)C(Cc1nc2ccc(Cl)cc2[nH]c1=O)C(=O)C(=O)Nc1cc(C)ccc1C (centres undefined) is ____.
**Result** > 100 µM
